The measured values listed here are drawn from patent US7977322B2.

Entries and their Emax values follow.
Target or test system: ΔF508-CFTR (Homo sapiens, UniProt P13569, DEL508-508)
Construct: expressed in transfected cells
Sequence (P13569 with tags, fused parts or gaps DEL508-508): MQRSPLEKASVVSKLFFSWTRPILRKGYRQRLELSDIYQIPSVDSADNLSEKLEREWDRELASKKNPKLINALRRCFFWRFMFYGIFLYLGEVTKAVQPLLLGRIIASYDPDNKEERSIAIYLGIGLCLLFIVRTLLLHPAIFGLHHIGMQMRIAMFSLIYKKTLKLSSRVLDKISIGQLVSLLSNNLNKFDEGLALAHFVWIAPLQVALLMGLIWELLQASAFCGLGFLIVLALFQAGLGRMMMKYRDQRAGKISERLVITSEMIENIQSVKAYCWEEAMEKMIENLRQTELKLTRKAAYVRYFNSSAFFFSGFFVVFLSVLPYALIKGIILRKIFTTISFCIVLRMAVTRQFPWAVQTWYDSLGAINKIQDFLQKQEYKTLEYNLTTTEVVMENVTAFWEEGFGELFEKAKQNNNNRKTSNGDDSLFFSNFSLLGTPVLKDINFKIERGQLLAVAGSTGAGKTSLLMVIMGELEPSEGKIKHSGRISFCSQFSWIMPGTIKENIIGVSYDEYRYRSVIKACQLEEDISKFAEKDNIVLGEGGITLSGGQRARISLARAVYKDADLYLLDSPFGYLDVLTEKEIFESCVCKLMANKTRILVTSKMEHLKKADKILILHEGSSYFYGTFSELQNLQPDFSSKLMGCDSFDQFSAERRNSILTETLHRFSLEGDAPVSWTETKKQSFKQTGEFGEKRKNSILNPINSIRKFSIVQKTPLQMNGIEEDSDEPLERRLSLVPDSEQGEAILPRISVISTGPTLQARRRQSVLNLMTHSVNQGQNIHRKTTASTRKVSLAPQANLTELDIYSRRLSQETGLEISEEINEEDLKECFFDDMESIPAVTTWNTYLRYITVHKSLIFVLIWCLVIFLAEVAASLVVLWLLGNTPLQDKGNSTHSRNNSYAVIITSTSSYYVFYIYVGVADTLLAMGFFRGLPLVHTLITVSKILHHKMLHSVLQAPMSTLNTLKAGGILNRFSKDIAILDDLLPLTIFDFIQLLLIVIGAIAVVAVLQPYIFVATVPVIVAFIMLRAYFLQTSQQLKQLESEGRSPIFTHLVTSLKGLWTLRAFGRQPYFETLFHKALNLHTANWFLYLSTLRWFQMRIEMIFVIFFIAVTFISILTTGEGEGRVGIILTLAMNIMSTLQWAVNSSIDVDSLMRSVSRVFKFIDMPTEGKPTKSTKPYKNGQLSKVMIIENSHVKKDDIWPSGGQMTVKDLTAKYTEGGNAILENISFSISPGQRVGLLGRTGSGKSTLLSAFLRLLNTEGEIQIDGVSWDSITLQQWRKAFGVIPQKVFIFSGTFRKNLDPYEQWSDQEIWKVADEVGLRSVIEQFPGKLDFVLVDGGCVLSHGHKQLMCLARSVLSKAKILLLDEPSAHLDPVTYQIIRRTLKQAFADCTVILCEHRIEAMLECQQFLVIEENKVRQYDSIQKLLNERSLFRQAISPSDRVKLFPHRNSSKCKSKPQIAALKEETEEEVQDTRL
Procedure summary: Membrane potential optical (FRET/VIPR) assay, identification of correction compounds
Assay type: cell-based
Details: Table 3; assay not given; read-out: % Activity / % Efficacy (relative efficacy)

>  <Compound>
COc1ccc(C(c2cnc(NC(=O)C3(c4ccc5c(c4)OCO5)CC3)s2)N(C)C)cc1 (stereo not shown)

>  <Emax>
> 100%

$$$$
>  <Compound>
CC(C)C[C@H](CO)NC(c1cnc(NC(=O)C2(c3ccc4c(c3)OCO4)CC2)s1)c1cc(F)ccc1F (stereo partly shown)

>  <Emax>
> 100%

$$$$
>  <Compound>
COCC1CCCN1C(c1ccc(S(C)(=O)=O)cc1)c1cnc(NC(=O)C2(c3ccc4c(c3)OCO4)CC2)s1 (stereo not shown)

>  <Emax>
25 to 100%

$$$$
>  <Compound>
O=C(Nc1ncc(C(NCCC2=CCCCC2)c2ccccc2Cl)s1)C1(c2ccc3c(c2)OCO3)CC1 (stereo not shown)

>  <Emax>
> 100%

$$$$
>  <Compound>
COC[C@@H]1CCCN1C(c1ccc(S(C)(=O)=O)cc1)c1cnc(NC(=O)C2(c3ccc4c(c3)OCO4)CC2)s1 (stereo partly shown)

>  <Emax>
25 to 100%

$$$$
>  <Compound>
COc1cccc(C(c2csc(NC(=O)C3(c4ccc5c(c4)OCO5)CC3)n2)N2CCC(O)CC2)c1 (stereo not shown)

>  <Emax>
> 100%

$$$$
>  <Compound>
COc1nonc1NC(=O)C1(c2ccc3c(c2)OCO3)CC1

>  <Emax>
25 to 100%

$$$$
>  <Compound>
COc1ccccc1C(c1cnc(NC(=O)C2(c3ccc4c(c3)OCO4)CC2)s1)N1CC[C@@H](O)C1 (stereo partly shown)

>  <Emax>
> 100%

$$$$
>  <Compound>
Cc1csc(NC(=O)C2(c3ccc4c(c3)OCO4)CC2)c1C(N)=O

>  <Emax>
25 to 100%

$$$$
>  <Compound>
CC(C)(C)C(c1cnc(NC(=O)C2(c3ccc4c(c3)OCO4)CC2)s1)N1CCCCC1 (stereo not shown)

>  <Emax>
> 100%

$$$$
>  <Compound>
CCC(CO)NC(c1cnc(NC(=O)C2(c3ccc4c(c3)OCO4)CC2)s1)c1ccccc1Cl (stereo not shown)

>  <Emax>
> 100%

$$$$
>  <Compound>
CC1(C)CC(NC(c2cnc(NC(=O)C3(c4ccc5c(c4)OCO5)CC3)s2)c2ccccc2Cl)CCO1 (stereo not shown)

>  <Emax>
> 100%

$$$$
>  <Compound>
CC(C)CC(CO)NC(c1cnc(NC(=O)C2(c3ccc4c(c3)OCO4)CC2)s1)c1cccc2c1OC(F)(F)O2 (stereo not shown)

>  <Emax>
> 100%

$$$$
>  <Compound>
O=C(Nc1ncc(C(Cc2ccccc2Cl)N2CCCC2)s1)C1(c2ccc3c(c2)OCO3)CC1 (stereo not shown)

>  <Emax>
25 to 100%

$$$$
>  <Compound>
CCOc1ccccc1C(NC(CO)CC(C)C)c1cnc(NC(=O)C2(c3ccc4c(c3)OCO4)CC2)s1 (stereo not shown)

>  <Emax>
> 100%

$$$$
>  <Compound>
CC(C)[C@H](CO)NC(c1cnc(NC(=O)C2(c3ccc4c(c3)OCO4)CC2)s1)c1ccccc1C(F)(F)F (stereo partly shown)

>  <Emax>
> 100%

$$$$
>  <Compound>
Cc1cccc(C2(C(=O)Nc3ncc(C(c4ccccc4Cl)N4CC[C@@H](O)C4)s3)CC2)c1 (stereo partly shown)

>  <Emax>
> 100%

$$$$
>  <Compound>
COCC1CCCN1C(c1cccc(OC)c1)c1cnc(NC(=O)C2(c3ccc4c(c3)OCO4)CC2)s1 (stereo not shown)

>  <Emax>
> 100%

$$$$
>  <Compound>
COc1cccc(C(c2cnc(NC(=O)C3(c4ccc5c(c4)OCO5)CC3)s2)N2CC[C@@H](O)C2)c1 (stereo partly shown)

>  <Emax>
> 100%

$$$$
>  <Compound>
O=C(Nc1ncc(C(c2ccccc2F)N2CC[C@@H](O)C2)s1)C1(c2ccc3c(c2)OCO3)CC1 (stereo partly shown)

>  <Emax>
> 100%

$$$$
>  <Compound>
Cc1cc(NC(=O)C2(c3ccc4c(c3)OCO4)CC2)n(Cc2ccccc2)n1

>  <Emax>
25 to 100%

$$$$
>  <Compound>
CC(C)[C@H](CO)NC(c1ccc2c(c1)OC(F)(F)O2)c1cnc(NC(=O)C2(c3ccc4c(c3)OCO4)CC2)s1 (stereo partly shown)

>  <Emax>
> 100%

$$$$
>  <Compound>
CC(C)(C)C(c1cnc(NC(=O)C2(c3ccc4c(c3)OCO4)CC2)s1)N1CCC[C@H]1C(N)=O (stereo partly shown)

>  <Emax>
> 100%

$$$$
>  <Compound>
CCN(CC)C(c1cccc(OC)c1)c1cnc(NC(=O)C2(c3ccc4c(c3)OCO4)CC2)s1 (stereo not shown)

>  <Emax>
> 100%

$$$$
>  <Compound>
CN1CCCC1CCNC(c1cnc(NC(=O)C2(c3ccc4c(c3)OCO4)CC2)s1)c1ccccc1Cl (stereo not shown)

>  <Emax>
25 to 100%

$$$$
>  <Compound>
O=C(Nc1ncc(C(c2ccccc2)N2CCCCC2)s1)C1(c2ccc3c(c2)OCO3)CC1 (stereo not shown)

>  <Emax>
> 100%

$$$$
>  <Compound>
CC(C)[C@H](CO)NC(c1cnc(NC(=O)C2(c3ccc4c(c3)OCO4)CC2)s1)c1ccccc1F (stereo partly shown)

>  <Emax>
> 100%

$$$$
>  <Compound>
CN(C)C(c1cnc(NC(=O)C2(c3ccc4c(c3)OCO4)CC2)s1)C(C)(C)C (stereo not shown)

>  <Emax>
> 100%

$$$$
